target: UniProt O75762; test: Measurement of TRPA1 antagonist activity (intracellular calcium increase, FLIPR); details: 293T cells transfected with human TRPA1 expression plasmid, allylisothiocyanate 20 μM stimulation, calcium fluorescence, read-out: antagonism hTRPA1
Sequence (O75762 whole entry): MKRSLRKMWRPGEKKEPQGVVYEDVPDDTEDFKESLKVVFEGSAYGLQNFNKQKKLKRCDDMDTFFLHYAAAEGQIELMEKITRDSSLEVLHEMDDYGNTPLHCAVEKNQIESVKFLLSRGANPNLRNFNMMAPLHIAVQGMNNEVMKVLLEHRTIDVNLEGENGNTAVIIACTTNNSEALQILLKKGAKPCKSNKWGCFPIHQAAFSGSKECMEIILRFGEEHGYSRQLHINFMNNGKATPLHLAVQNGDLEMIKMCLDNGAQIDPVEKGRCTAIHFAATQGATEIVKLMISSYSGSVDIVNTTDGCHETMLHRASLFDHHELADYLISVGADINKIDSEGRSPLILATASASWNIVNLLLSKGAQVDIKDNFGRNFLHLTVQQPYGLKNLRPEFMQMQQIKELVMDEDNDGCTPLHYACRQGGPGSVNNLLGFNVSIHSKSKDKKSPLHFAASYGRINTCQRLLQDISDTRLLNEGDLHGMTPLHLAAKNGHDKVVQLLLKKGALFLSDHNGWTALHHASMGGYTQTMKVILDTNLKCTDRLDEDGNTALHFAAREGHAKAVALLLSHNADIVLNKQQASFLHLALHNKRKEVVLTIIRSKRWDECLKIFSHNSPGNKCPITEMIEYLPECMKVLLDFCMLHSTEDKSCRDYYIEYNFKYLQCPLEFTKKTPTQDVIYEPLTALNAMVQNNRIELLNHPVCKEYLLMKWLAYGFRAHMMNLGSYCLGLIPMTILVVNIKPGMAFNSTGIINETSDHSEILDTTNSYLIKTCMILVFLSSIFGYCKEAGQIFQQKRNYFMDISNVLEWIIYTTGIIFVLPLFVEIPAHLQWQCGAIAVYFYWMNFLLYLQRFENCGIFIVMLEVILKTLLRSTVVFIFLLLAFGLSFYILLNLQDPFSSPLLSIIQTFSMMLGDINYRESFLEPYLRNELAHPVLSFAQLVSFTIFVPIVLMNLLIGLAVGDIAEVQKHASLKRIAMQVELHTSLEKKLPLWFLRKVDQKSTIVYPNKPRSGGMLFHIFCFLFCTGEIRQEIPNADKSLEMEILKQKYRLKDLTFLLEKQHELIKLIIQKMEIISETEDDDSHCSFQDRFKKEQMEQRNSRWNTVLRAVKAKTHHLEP
measured-parameter: IC50 (nM)
API: value field is a number in nM; no unit string.

Consider the reported IC50 for these compounds:
>>> observed_result("CC1(C)SCN(S(=O)(=O)c2ccc(Cl)s2)[C@@H]1C(=O)NCc1nc(-c2ccc(C(F)(F)F)cc2)cs1")
520
>>> observed_result("O=C(NCc1nc(-c2cccc(F)c2)cs1)[C@@H]1CCCN1S(=O)(=O)c1ccc(Cl)s1")
430
>>> observed_result("O=C(NCc1nc(-c2ccc(C(F)(F)F)cc2)cs1)[C@@H]1CCCN1S(=O)(=O)c1ccsc1")
340

Please find the next compound below.
Exercise: Quick check: IC50 of O=C(NCc1nc(-c2ccc(C(F)(F)F)cc2)cs1)[C@@H]1CCCN1S(=O)(=O)c1cccc(F)c1 ?
Solution: 100
